# Tgt: PDE2A (Rattus norvegicus, UniProt Q01062)
# Construct: from tissue; host or cells: rat brain striatal sections (ex vivo)
# Sequence (Q01062 1-928): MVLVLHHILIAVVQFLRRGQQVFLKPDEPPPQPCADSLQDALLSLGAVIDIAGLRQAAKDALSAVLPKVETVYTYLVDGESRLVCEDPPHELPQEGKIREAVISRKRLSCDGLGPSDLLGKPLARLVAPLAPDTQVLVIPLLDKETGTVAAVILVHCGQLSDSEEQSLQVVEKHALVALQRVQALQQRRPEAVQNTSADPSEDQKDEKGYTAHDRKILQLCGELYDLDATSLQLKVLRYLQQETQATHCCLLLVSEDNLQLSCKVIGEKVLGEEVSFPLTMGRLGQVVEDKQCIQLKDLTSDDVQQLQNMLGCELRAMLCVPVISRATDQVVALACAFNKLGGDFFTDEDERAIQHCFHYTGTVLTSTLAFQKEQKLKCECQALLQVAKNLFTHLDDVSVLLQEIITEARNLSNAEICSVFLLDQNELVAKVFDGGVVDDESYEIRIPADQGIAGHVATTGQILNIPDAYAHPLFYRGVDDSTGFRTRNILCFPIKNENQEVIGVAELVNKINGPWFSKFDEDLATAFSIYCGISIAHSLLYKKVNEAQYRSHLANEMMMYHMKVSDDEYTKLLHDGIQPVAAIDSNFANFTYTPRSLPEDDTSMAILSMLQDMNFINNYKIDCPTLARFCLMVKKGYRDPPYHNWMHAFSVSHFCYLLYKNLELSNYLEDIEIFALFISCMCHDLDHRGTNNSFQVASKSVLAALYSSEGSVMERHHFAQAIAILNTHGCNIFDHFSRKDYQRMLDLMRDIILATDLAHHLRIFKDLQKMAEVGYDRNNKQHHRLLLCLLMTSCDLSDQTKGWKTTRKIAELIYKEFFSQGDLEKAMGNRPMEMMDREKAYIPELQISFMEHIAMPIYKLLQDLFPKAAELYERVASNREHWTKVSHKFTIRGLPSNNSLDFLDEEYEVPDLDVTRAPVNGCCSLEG
# Assay Remarks: PDE2 occupancy by ex-vivo autoradiography with [3H]B-17a
# Assay type: in vivo
# Condition Parameters: rat, po, read-out: PDE2 occupancy at 10 mg/kg
Property: receptor occupancy at 10 mg/kg (%)

1) C[C@@H]1CCN(c2ccnc3ccccc23)C[C@H]1c1cc(C(F)F)nc2ncnn12 : -8
2) C[C@@H]1CCN(c2ccccn2)C[C@H]1c1cc(C(F)F)nc2ncnn12.Cl : 18
3) C[C@@H]1CCN(c2ncnc3ccccc23)C[C@H]1c1cc(C(F)F)nc2ncnn12 : 1
4) C[C@@H]1CCN(c2ccc(C#N)cn2)C[C@H]1c1cc(C(F)F)nc2ncnn12 : 0

====

# Tgt: hPDE2A (Homo sapiens, UniProt O00408)
# Construct: made in house; host or cells: Sf9 insect cells (baculovirus)
# Sequence (O00408 whole entry): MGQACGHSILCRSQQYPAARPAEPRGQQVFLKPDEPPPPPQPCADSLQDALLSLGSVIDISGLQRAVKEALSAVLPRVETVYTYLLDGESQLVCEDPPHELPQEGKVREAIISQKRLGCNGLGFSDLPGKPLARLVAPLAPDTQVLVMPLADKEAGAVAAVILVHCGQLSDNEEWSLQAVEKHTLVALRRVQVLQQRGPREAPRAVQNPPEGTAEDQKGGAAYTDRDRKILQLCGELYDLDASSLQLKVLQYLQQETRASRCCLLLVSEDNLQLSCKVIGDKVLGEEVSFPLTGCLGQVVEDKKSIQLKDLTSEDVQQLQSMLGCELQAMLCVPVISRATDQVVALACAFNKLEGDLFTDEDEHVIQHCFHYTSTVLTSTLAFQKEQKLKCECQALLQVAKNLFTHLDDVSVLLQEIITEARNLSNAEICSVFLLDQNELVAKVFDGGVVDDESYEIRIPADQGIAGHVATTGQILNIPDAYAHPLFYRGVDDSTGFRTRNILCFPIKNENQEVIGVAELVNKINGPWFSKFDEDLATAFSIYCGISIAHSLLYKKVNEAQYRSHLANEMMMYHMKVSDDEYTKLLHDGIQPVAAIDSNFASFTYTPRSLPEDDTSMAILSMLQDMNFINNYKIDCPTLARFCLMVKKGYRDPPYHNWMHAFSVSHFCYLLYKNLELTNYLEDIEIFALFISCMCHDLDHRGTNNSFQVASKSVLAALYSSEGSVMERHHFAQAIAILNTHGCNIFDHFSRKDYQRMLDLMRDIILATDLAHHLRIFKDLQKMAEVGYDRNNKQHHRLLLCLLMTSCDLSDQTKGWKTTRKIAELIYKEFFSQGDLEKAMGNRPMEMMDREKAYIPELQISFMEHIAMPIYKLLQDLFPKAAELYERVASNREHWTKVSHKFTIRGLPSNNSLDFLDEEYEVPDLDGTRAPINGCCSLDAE
# Assay Remarks: In vitro assay PDE2A (SPA, 3H-cGMP)
# Type: biochemical
# Condition Parameters: read-out: hPDE2A Emax
The entries below are paired with their reported Emax.
Property: Emax (%)

1. C[C@@H]1CCN(c2ccc(C(F)(F)F)cn2)C[C@H]1c1cc(C(F)F)nc2ncnn12 : 99
2. C[C@@H]1CCN(c2ncnc3ccccc23)C[C@H]1c1cc(C(F)F)nc2ncnn12 : 100
3. C[C@@H]1CCN(c2nccc3ccc(Cl)cc23)C[C@H]1c1cc(C(F)F)nc2ncnn12 : 100
4. CC(C)Oc1cccnc1N1CC[C@@H](C)[C@H](c2cc(C(F)F)nc3ncnn23)C1.Cl : 81
5. Cc1cc([C@@H]2CN(c3nccc4ccc(Br)cc34)CC[C@H]2C)n2ncnc2n1 : 100
6. Cc1cc(C(F)(F)F)cc(N2CC[C@@H](C)[C@H](c3cc(C(F)F)nc4ncnn34)C2)n1 : 101
7. C[C@@H]1CCN(c2cccc(C(F)(F)F)n2)C[C@H]1c1cc(C(F)F)nc2ncnn12 : 99
8. C[C@H]1CCN(c2nccc3ccc(Br)cc23)C[C@@H]1c1cc(C(F)F)nc2ncnn12 : 8
9. C[C@@H]1CCN(c2ncc(Cl)c3ccccc23)C[C@H]1c1cc(C(F)F)nc2ncnn12 : 99
10. Cc1cccc(N2CC[C@@H](C)C(c3cc(C(F)F)nc4ncnn34)C2)n1 (stereo partly drawn) : 99
11. C[C@@H]1CCN(c2cc(C#N)c3cc(Cl)ccc3n2)C[C@H]1c1cc(C(F)F)nc2ncnn12 : 102
12. COc1cnc(N2CC[C@@H](C)[C@H](c3cc(C(F)F)nc4ncnn34)C2)c2ccccc12 : 101
13. C[C@@H]1CCN(c2ncccc2Cl)C[C@H]1c1cc(C(F)F)nc2ncnn12 : 99
14. CCCCOc1ccnc(N2CC[C@@H](C)[C@H](c3cc(C(F)F)nc4ncnn34)C2)c1 : 99
15. C[C@@H]1CCN(c2cccc(C#N)n2)C[C@H]1c1cc(C(F)F)nc2ncnn12 : 100

====

# Tgt: UniProt Q9Y233
# Sequence (Q9Y233 267-1055): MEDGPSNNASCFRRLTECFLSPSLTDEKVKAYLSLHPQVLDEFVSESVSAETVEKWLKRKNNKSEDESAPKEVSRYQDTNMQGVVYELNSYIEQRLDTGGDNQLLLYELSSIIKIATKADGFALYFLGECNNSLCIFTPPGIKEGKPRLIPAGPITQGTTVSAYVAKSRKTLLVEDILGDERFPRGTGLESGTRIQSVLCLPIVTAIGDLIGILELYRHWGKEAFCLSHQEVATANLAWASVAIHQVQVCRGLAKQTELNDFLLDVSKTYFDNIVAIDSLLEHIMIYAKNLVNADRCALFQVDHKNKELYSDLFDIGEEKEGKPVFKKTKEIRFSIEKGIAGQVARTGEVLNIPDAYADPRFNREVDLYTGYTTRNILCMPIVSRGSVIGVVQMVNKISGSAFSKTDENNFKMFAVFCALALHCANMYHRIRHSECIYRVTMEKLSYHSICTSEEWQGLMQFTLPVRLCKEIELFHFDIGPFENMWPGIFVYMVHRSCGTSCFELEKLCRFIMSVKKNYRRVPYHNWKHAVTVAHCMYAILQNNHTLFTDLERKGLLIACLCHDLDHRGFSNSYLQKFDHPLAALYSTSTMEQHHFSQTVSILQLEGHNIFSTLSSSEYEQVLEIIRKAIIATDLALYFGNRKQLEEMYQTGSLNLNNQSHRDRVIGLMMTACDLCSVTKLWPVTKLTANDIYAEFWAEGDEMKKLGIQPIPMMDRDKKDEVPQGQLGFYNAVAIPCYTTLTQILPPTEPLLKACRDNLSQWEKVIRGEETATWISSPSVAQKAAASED
# Assay Remarks: biochemical
# Condition Parameters: read-out: hPDE10A2 Emax
Property: Emax (%)

1) C[C@@H]1CCN(c2ncccc2Cl)C[C@H]1c1cc(C(F)F)nc2ncnn12 [Compound 28] : 90
2) C[C@@H]1CCN(c2nccc3[nH]ccc23)C[C@H]1c1cc(C(F)F)nc2ncnn12 [Compound 9] : 92
3) CC(C)Oc1cccnc1N1CC[C@@H](C)[C@H](c2cc(C(F)F)nc3ncnn23)C1.Cl [Compound 31] : 91
4) C[C@@H]1CCN(c2ccnc3ccccc23)C[C@H]1c1cc(C(F)F)nc2ncnn12 [Compound 42] : 91
5) C[C@@H]1CCN(c2ccc(Cl)cn2)C[C@H]1c1cc(C(F)F)nc2ncnn12 [Compound 25] : 92
